experiment: chemical genetic growth profiling, strain panel (AID 1159580);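 also: tested at 20 µM; growth read once vehicle control cultures reached saturation at 30 °C; 1 = growth at the plate median or of vehicle wells; lower values mean less growth of the strain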; details: S. cerevisiae deletion strains, growth OD, locus YER111C, strain swi4, active compounds read low
Out of some 5,500 compounds screened, about 2,000 (36%) were called active. About 18% were inconclusive and are not listed. This is one part of the list.
met if normalized growth is below 1. not met if not; exact matches included in not met.

molecule	class.label
C[C@]12CCC3c4ccc(OS(=O)(=O)O)cc4CCC3C1CCC2=O (stereo not given in full)	met
CC[C@@H]1[C@@H](O)N2C3C[C@H]1C1C(O)[C@]4(C[C@@H]12)c1ccccc1N(C)[C@@H]34 (stereo not given in full)	not met
COc1ccc(/C=C/C(=O)c2ccc(O)cc2O)cc1	met
C[C@@H]1C[C@@H]([C@H](O)CC2CC(=O)NC(=O)C2)C(=O)[C@@H](C)C1	met

###

Below is a list of entries, each paired with its recorded normalized growth value.
assay: chemical genetic growth profiling, strain panel (AID 1159580);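 also: tested at 20 µM; growth read once vehicle control cultures reached saturation at 30 °C; 1 = growth at the plate median or of vehicle wells; lower values mean less growth of the strain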; settings: S. cerevisiae deletion strains, growth OD, locus YPL241C, strain CIN2, active compounds read low
The campaign covered roughly 5,500 compounds. About 2,000 (36%) were called active. Roughly 18% stayed inconclusive and do not appear here. The list shows a part of the results.

compound	normalized growth
O=C(O)c1cc(=O)c(O)c2c(O)c(O)ccc2c1	1.01
CN(C)CCCO[C@H]1[C@@H](C(O)CO)OC2OC(C)(C)O[C@@H]21 (stereo partly specified)	0.987
COc1ccc(C[C@H](N)C(=O)N[C@@H]2[C@@H](CO)OC(n3cnc4c(N(C)C)ncnc43)[C@@H]2O)cc1 (stereo partly specified)	1
ON(Cc1c(F)cccc1Cl)Cc1c(F)cccc1Cl	1
CC(=O)O[C@H]1CC[C@@]2(C)C(=CCC3C2CC[C@]2(C)C(=O)CCC32)C1 (stereo partly specified)	1
Cc1cc(/C=N/NC(N)=S)c2c(C)ccc(C(C)C)cc1-2	1.01
COc1cc2c(cc1C(F)(F)F)N(C(=O)Nc1cc(F)cc(-c3cccnc3)c1)CC2	1.01
COc1cc(/C=C/C(=O)O)ccc1O	0.999
COc1ccccc1OCC(O)CN1CCN(CC(=O)Nc2c(C)cccc2C)CC1 (stereo unspecified)	1.01
BrC12CC3CC(CC(C3)C1)C2	1
Cc1ccc(C(C)C)cc2c(C)ccc1-2	1

###

assay: chemical genetic growth profiling, strain panel (AID 1159580);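 also: tested at 20 µM; growth read once vehicle control cultures reached saturation at 30 °C; 1 = growth at the plate median or of vehicle wells; lower values mean less growth of the strain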; details: S. cerevisiae deletion strains, growth OD, locus YGL253W, strain hxk2, active compounds read low
Out of some 5,500 compounds screened, about 2,000 (36%) were called active. About 18% were inconclusive and are not listed. Some of the results follow.
Mark each entry T if its normalized growth sits below 1, and F for all others.

compound	class.label
CN(Cc1cc(Br)cc(Br)c1N)C1CCCCC1	F
C#C[C@]1(O)CCC2C3CCc4cc(OC)ccc4C3CC[C@@]21C (some centres not stated)	T

###

assay: chemical genetic growth profiling, strain panel (AID 1159580);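 also: tested at 20 µM; growth read once vehicle control cultures reached saturation at 30 °C; 1 = growth at the plate median or of vehicle wells; lower values mean less growth of the strain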; conditions: S. cerevisiae deletion strains, growth OD, locus YLR330W, strain CHS5
The whole screen tested about 5,500 compounds, of which about 2,000 (36%) were called active. Not shown: some 18% with an inconclusive outcome. No stated cut-off is given here; in the data, active means normalized growth mostly below about 0.91 (no sharp cut-off); inconclusive means no clear call, values can overlap the other calls; inactive means mostly above about 0.92. Some of the results follow.
Possible outcomes: true (1) (active), false (0) (inactive)

compound	class.label
CCOP(=S)(OCC)SCCSCC	false (0)
O=c1ccn([C@@H]2O[C@H](COP(=O)(O)OP(=O)(O)OP(=O)(O)O)[C@@H](O)[C@H]2O)c(=O)[nH]1	false (0)
CCOP(=S)(OCC)SCSP(=S)(OCC)OCC	false (0)
CC1(C)CC2C1CCC1(C)OC2(C)CCC1O (stereo not drawn)	false (0)
COc1ccc(C[C@H](N)C(=O)N[C@@H]2[C@@H](CO)OC(n3cnc4c(N(C)C)ncnc43)[C@@H]2O)cc1 (stereo partly drawn)	false (0)
CC[C@@H](C(=O)O)[C@@H]1O[C@@H]([C@@H](C)[C@H](O)[C@H](C)C(=O)[C@H](CC)[C@H]2O[C@]3(C=C[C@@H](O)[C@]4(CC[C@@](C)(C5CC[C@](O)(CC)[C@H](C)O5)O4)O3)[C@H](C)C[C@@H]2C)[C@@H](C)C[C@H]1C (stereo partly drawn)	true (1)
COc1cc(/C=C/C(=O)O)cc(OC)c1OC	false (0)
CC[C@@]1(C2O[C@@H](C3O[C@@](O)(CC)[C@H](C)C[C@@H]3C)C[C@@H]2C)CC[C@H]([C@]2(C)CCC3(C[C@H](O)[C@@H](C)[C@@H]([C@H](C)[C@@H](OC)[C@H](C)C(=O)O)O3)O2)O1 (stereo partly drawn)	false (0)
